ASSAYED_TARGET: Threonine--tRNA ligase (Salmonella enterica)
ASSAY_SUMMARY: Binding affinity to full length recombinant salmonella enterica threonyl-tRNA synthetase assessed as dissociation constant by isothermal titration calorimetry assay
pKd: −log10 of the molar value.
READOUT_TYPE: pKd

[[record]]
mol_smiles = "C[C@@H](O)[C@H](N)C(=O)N[C@@H](CNC(=O)CCn1cnc2cc(Cl)c(Cl)cc2c1=O)c1cccc(-c2ccc3c(c2)CNC3=O)c1"
observed_value = 7.45


====

Tested on: Enterococcus faecalis
ASSAY_SUMMARY: Antibacterial activity against Enterococcus faecalis ATCC 29212 strain assessed as inhibition of bacterial growth incubated for 8 hrs by CLSI protocol based microdilution assay
Type: functional
Attribute: MIC
READOUT_TYPE: MIC (µg/mL)

[[record]]
mol_smiles = "C[C@@H](O)[C@H](N)C(=O)N[C@@H](CNC(=O)CCn1cnc2cc(Br)c(Cl)cc2c1=O)c1cccc(-c2ccc3[nH]ncc3c2)c1"
comparison_symbol = "≥"
observed_value = 128

[[record]]
mol_smiles = "C[C@@H](O)[C@H](N)C(=O)N[C@@H](CNC(=O)CCn1cnc2cc(Cl)c(Cl)cc2c1=O)c1cccc(-c2ccc3c(c2)CNC3=O)c1"
comparison_symbol = "≥"
observed_value = 128

[[record]]
mol_smiles = "C[C@@H](O)[C@H](N)C(=O)N(CCCCCCn1cnc2cc(Br)c(Cl)cc2c1=O)Cc1cccc(-c2ccc3c(c2)CNC3=O)c1"
comparison_symbol = "="
observed_value = 64

[[record]]
mol_smiles = "C[C@@H](O)[C@H](N)C(=O)N[C@@H](CNC(=O)CCn1cnc2cc(Br)c(Cl)cc2c1=O)c1cccc(-c2ccccc2)c1"
comparison_symbol = "="
observed_value = 32

[[record]]
mol_smiles = "C[C@@H](O)[C@H](N)C(=O)N[C@@H](CNC(=O)CCn1cnc2cc(Br)c(Cl)cc2c1=O)c1cccc(-c2ccc3[nH]ccc3c2)c1"
comparison_symbol = "="
observed_value = 32

[[record]]
mol_smiles = "C[C@@H](O)[C@H](N)C(=O)N[C@@H](CNC(=O)CCn1cnc2cc(Cl)c(F)cc2c1=O)c1cccc(-c2ccccc2)c1"
comparison_symbol = "="
observed_value = 32


====

ASSAYED_TARGET: Threonine--tRNA ligase (Salmonella enterica, UniProt A0A3F3IEK2)
Sequence (A0A3F3IEK2 whole entry): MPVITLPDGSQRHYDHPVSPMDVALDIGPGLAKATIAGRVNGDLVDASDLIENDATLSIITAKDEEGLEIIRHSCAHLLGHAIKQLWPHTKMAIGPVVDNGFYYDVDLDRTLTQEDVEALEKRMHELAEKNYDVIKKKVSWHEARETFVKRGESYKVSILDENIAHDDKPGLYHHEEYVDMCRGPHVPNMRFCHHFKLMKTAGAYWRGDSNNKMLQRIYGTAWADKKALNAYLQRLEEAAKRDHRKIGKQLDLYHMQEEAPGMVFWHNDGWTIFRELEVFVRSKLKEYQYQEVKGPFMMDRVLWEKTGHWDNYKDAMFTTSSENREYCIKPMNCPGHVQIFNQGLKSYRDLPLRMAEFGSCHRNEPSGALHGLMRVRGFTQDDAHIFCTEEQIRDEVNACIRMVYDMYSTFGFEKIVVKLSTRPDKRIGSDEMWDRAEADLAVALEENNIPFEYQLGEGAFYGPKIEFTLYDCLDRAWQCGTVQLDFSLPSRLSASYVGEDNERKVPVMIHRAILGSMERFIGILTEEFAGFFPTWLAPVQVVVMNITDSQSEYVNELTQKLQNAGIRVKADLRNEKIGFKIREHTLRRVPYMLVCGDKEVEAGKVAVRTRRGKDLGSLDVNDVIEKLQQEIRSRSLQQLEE
ASSAY_SUMMARY: Binding affinity to full length recombinant salmonella enterica threonyl-tRNA synthetase assessed as dissociation constant in presence of glycine by isothermal titration calorimetry assay
READOUT_TYPE: Kd (nM)

[[record]]
mol_smiles = "C[C@@H](O)[C@H](N)C(=O)N[C@@H](CNC(=O)CCn1cnc2cc(Cl)c(Cl)cc2c1=O)c1cccc(-c2ccc3c(c2)CNC3=O)c1"
assayed_target = "Threonine--tRNA ligase (Salmonella enterica, UniProt A0A3F3IEK2)"
readout_type = "Kd"
observed_value = 44.4


====

ASSAYED_TARGET: Threonine--tRNA ligase (Salmonella enterica) (UniProt A0A3F3IEK2)
Sequence (A0A3F3IEK2 as listed by the source): as the sequence (A0A3F3IEK2 whole entry) above
ASSAY_SUMMARY: Inhibition of recombinant salmonella enterica threonyl-tRNA synthetase assessed as reduction in enzyme activity at 10 uM incubated for 20 min by Kinase Glo luminescence assay relative to control
Binary classification by inhibition, with 30% as an inclusive lower bound for t; all other cases are f.

[[record]]
mol_smiles = "C[C@@H](O)[C@H](N)C(=O)N[C@H](CNC(=O)CCn1cnc2cc(Cl)c(F)cc2c1=O)c1cccc(-c2ccccc2)c1"
class_name = "f"

[[record]]
mol_smiles = "C[C@@H](O)[C@H](N)C(=O)N[C@@H](CNC(=O)CCn1cnc2cc(Cl)c(F)cc2c1=O)c1cccc(-c2ccccc2)c1"
class_name = "t"

[[record]]
mol_smiles = "C[C@@H](O)[C@H](N)C(=O)N[C@H](CNC(=O)CCn1cnc2cc(Br)c(Cl)cc2c1=O)c1cccc(-c2ccc3[nH]ccc3c2)c1"
class_name = "f"

[[record]]
mol_smiles = "C[C@@H](O)[C@H](N)C(=O)N[C@@H](CNC(=O)CCn1cnc2cc(Cl)c(Cl)cc2c1=O)c1cccc(-c2ccc(C(F)(F)F)cc2)c1"
class_name = "t"

[[record]]
mol_smiles = "C[C@@H](O)[C@H](N)C(=O)N[C@H](CNC(=O)CCn1cnc2cc(Br)c(Cl)cc2c1=O)c1cccc(-c2ccc3c(c2)CNC3=O)c1"
class_name = "t"

[[record]]
mol_smiles = "C[C@@H](O)[C@H](N)C(=O)N(CCCC(=O)NCCn1cnc2cc(Br)c(Cl)cc2c1=O)Cc1cccc(-c2ccc3c(c2)CNC3=O)c1"
class_name = "t"


====

Tested on: Escherichia coli
ASSAY_SUMMARY: Antibacterial activity against Escherichia coli ATCC 25922 strain assessed as inhibition of bacterial growth incubated for 8 hrs by CLSI protocol based microdilution assay
Type: functional
READOUT_TYPE: MIC

[[record]]
mol_smiles = "C[C@@H](O)[C@H](N)C(=O)N[C@@H](CNC(=O)CCn1cnc2cc(Cl)c(F)cc2c1=O)c1cccc(-c2ccccc2)c1"
assayed_target = "Escherichia coli"
observed_value = "≥ 128 µg/mL"

[[record]]
mol_smiles = "CN[C@H](C(=O)N[C@@H](CNC(=O)CCn1cnc2cc(Cl)c(F)cc2c1=O)c1cccc(-c2ccccc2)c1)[C@@H](C)O"
assayed_target = "Escherichia coli"
observed_value = "≥ 128 µg/mL"

[[record]]
mol_smiles = "C[C@@H](O)[C@H](N)C(=O)N[C@@H](CNC(=O)CCn1cnc2cc(Br)c(Cl)cc2c1=O)c1cccc(-c2ccccc2)c1"
assayed_target = "Escherichia coli"
observed_value = "≥ 128 µg/mL"

[[record]]
mol_smiles = "C[C@@H](O)[C@H](N)C(=O)N(CCC(=O)NCCn1cnc2cc(Br)c(Cl)cc2c1=O)Cc1cccc(-c2ccc3c(c2)CNC3=O)c1"
assayed_target = "Escherichia coli"
observed_value = "≥ 128 µg/mL"

[[record]]
mol_smiles = "C[C@@H](O)[C@H](N)C(=O)N(CCCCCCn1cnc2cc(Br)c(Cl)cc2c1=O)Cc1cccc(-c2ccc3c(c2)CNC3=O)c1"
assayed_target = "Escherichia coli"
observed_value = "≥ 128 µg/mL"

[[record]]
mol_smiles = "C[C@@H](O)[C@H](N)C(=O)N[C@@H](CNC(=O)CCn1cnc2cc(Br)c(Cl)cc2c1=O)c1cccc(-c2ccc3c(c2)CNC3=O)c1"
assayed_target = "Escherichia coli"
observed_value = "≥ 128 µg/mL"

[[record]]
mol_smiles = "C[C@@H](O)[C@H](N)C(=O)N[C@@H](CNC(=O)CCn1cnc2cc(Br)c(Cl)cc2c1=O)c1cccc(-c2ccc3c(N)ncnc3c2)c1"
assayed_target = "Escherichia coli"
observed_value = "≥ 128 µg/mL"


====

Recorded ΔTm values for a group of compounds are listed next.
ASSAYED_TARGET: Threonine--tRNA ligase (Salmonella enterica) (UniProt A0A3F3IEK2)
ASSAY_SUMMARY: Binding affinity to recombinant salmonella enterica threonyl-tRNA synthetase assessed as change in melting temperature at 0.1 mM by fluorescence-based thermal shift assay
READOUT_TYPE: ΔTm (°C)

[[record]]
mol_smiles = "CN[C@H](C(=O)N[C@H](CNC(=O)CCn1cnc2cc(Cl)c(F)cc2c1=O)c1cccc(-c2ccccc2)c1)[C@@H](C)O"
assayed_target = "Threonine--tRNA ligase (Salmonella enterica) (UniProt A0A3F3IEK2)"
observed_value = 7.2

[[record]]
mol_smiles = "C[C@@H](O)[C@H](N)C(=O)N[C@@H](CNC(=O)CCn1cnc2cc(Br)c(Cl)cc2c1=O)c1cccc(-c2ccc3ccccc3c2)c1"
assayed_target = "Threonine--tRNA ligase (Salmonella enterica) (UniProt A0A3F3IEK2)"
observed_value = 20.2

[[record]]
mol_smiles = "C[C@@H](O)[C@H](N)C(=O)NS(=O)(=O)c1cccc(-c2ccc3[nH]ncc3c2)c1"
assayed_target = "Threonine--tRNA ligase (Salmonella enterica) (UniProt A0A3F3IEK2)"
observed_value = 29.9

[[record]]
mol_smiles = "C[C@@H](O)[C@H](N)C(=O)N[C@@H](CNC(=O)CCn1cnc2cc(Br)c(Cl)cc2c1=O)c1cccc(-c2ccc3c(N)ncnc3c2)c1"
assayed_target = "Threonine--tRNA ligase (Salmonella enterica) (UniProt A0A3F3IEK2)"
observed_value = 35.2

[[record]]
mol_smiles = "C[C@@H](O)[C@H](N)C(=O)NCC=CCn1cnc2cc(Cl)c(Cl)cc2c1=O"
assayed_target = "Threonine--tRNA ligase (Salmonella enterica) (UniProt A0A3F3IEK2)"
observed_value = 17.6

[[record]]
mol_smiles = "C[C@@H](O)[C@H](N)C(=O)N[C@@H](CNC(=O)CCn1cnc2cc(Br)c(Cl)cc2c1=O)c1cccc(-c2ccc3[nH]ccc3c2)c1"
assayed_target = "Threonine--tRNA ligase (Salmonella enterica) (UniProt A0A3F3IEK2)"
observed_value = 22.6

[[record]]
mol_smiles = "C[C@@H](O)[C@H](N)C(=O)N(CCCCOC(=O)Cn1cnc2cc(Br)c(Cl)cc2c1=O)Cc1cccc(-c2ccc3c(c2)CNC3=O)c1"
assayed_target = "Threonine--tRNA ligase (Salmonella enterica) (UniProt A0A3F3IEK2)"
observed_value = 0

[[record]]
mol_smiles = "C[C@@H](O)[C@H](N)C(=O)N[C@H](CNC(=O)CCn1cnc2cc(Cl)c(Cl)cc2c1=O)c1cccc(-c2ccccc2)c1"
assayed_target = "Threonine--tRNA ligase (Salmonella enterica) (UniProt A0A3F3IEK2)"
observed_value = 5

[[record]]
mol_smiles = "C[C@@H](O)[C@H](N)C(=O)N[C@@H](CNC(=O)CCn1cnc2cc(Cl)c(F)cc2c1=O)c1cccc(-c2ccccc2)c1"
assayed_target = "Threonine--tRNA ligase (Salmonella enterica) (UniProt A0A3F3IEK2)"
observed_value = 22.6

[[record]]
mol_smiles = "C[C@@H](O)[C@H](N)C(=O)N[C@H](CNC(=O)CCn1cnc2cc(Br)c(Cl)cc2c1=O)c1cccc(-c2ccc3ccccc3c2)c1"
assayed_target = "Threonine--tRNA ligase (Salmonella enterica) (UniProt A0A3F3IEK2)"
observed_value = 4.8

[[record]]
mol_smiles = "C[C@@H](O)[C@H](N)C(=O)N[C@@H](CNC(=O)CCn1cnc2cc(Br)c(Cl)cc2c1=O)c1cccc(-c2ccccc2)c1"
assayed_target = "Threonine--tRNA ligase (Salmonella enterica) (UniProt A0A3F3IEK2)"
observed_value = 20.1

[[record]]
mol_smiles = "C[C@@H](O)[C@H](N)C(=O)N(CCC(=O)N1CCN(CCn2cnc3cc(Br)c(Cl)cc3c2=O)CC1)Cc1cccc(-c2ccc3c(c2)CNC3=O)c1"
assayed_target = "Threonine--tRNA ligase (Salmonella enterica) (UniProt A0A3F3IEK2)"
observed_value = 0

[[record]]
mol_smiles = "C[C@@H](O)[C@H](N)C(=O)N[C@H](CNC(=O)CCn1cnc2cc(Br)c(Cl)cc2c1=O)c1cccc(-c2ccc3[nH]ccc3c2)c1"
assayed_target = "Threonine--tRNA ligase (Salmonella enterica) (UniProt A0A3F3IEK2)"
observed_value = 8.4

[[record]]
mol_smiles = "C[C@@H](O)[C@H](N)C(=O)N[C@H](CNC(=O)CCn1cnc2cc(Br)c(Cl)cc2c1=O)c1cccc(-c2ccc3c(N)ncnc3c2)c1"
assayed_target = "Threonine--tRNA ligase (Salmonella enterica) (UniProt A0A3F3IEK2)"
observed_value = 29.4

[[record]]
mol_smiles = "C[C@@H](O)[C@H](N)C(=O)N[C@@H](CNC(=O)CCn1cnc2cc(Br)c(Cl)cc2c1=O)c1cccc(-c2ccc3c(c2)CNC3=O)c1"
assayed_target = "Threonine--tRNA ligase (Salmonella enterica) (UniProt A0A3F3IEK2)"
observed_value = 32.8

[[record]]
mol_smiles = "C[C@@H](O)[C@H](N)C(=O)N[C@@H](CNC(=O)CCn1cnc2cc(Cl)c(Cl)cc2c1=O)c1cccc(-c2ccc3c(c2)CNC3=O)c1"
assayed_target = "Threonine--tRNA ligase (Salmonella enterica) (UniProt A0A3F3IEK2)"
observed_value = 33.6

[[record]]
mol_smiles = "C[C@@H](O)[C@H](N)C(=O)N[C@H](CNC(=O)CCn1cnc2cc(Cl)c(F)cc2c1=O)c1cccc(-c2ccccc2)c1"
assayed_target = "Threonine--tRNA ligase (Salmonella enterica) (UniProt A0A3F3IEK2)"
observed_value = 12.1

[[record]]
mol_smiles = "C[C@@H](O)[C@H](N)C(=O)N[C@H](CNC(=O)CCn1cnc2cc(Br)c(Cl)cc2c1=O)c1cccc(-c2ccccc2)c1"
assayed_target = "Threonine--tRNA ligase (Salmonella enterica) (UniProt A0A3F3IEK2)"
observed_value = 7

[[record]]
mol_smiles = "C[C@@H](O)[C@@H](N)C(=O)N(CCCCCn1cnc2cc(Br)c(Cl)cc2c1=O)S(=O)(=O)c1cccc(-c2ccc3c(c2)CNC3=O)c1"
assayed_target = "Threonine--tRNA ligase (Salmonella enterica) (UniProt A0A3F3IEK2)"
observed_value = 6.2

[[record]]
mol_smiles = "CN[C@H](C(=O)N[C@@H](CNC(=O)CCn1cnc2cc(Cl)c(F)cc2c1=O)c1cccc(-c2ccccc2)c1)[C@@H](C)O"
assayed_target = "Threonine--tRNA ligase (Salmonella enterica) (UniProt A0A3F3IEK2)"
observed_value = 22.1

[[record]]
mol_smiles = "C[C@@H](O)[C@H](N)C(=O)N[C@@H](CNC(=O)CCn1cnc2cc(Br)c(Cl)cc2c1=O)c1cccc(-c2ccc3[nH]ncc3c2)c1"
assayed_target = "Threonine--tRNA ligase (Salmonella enterica) (UniProt A0A3F3IEK2)"
observed_value = 28

[[record]]
mol_smiles = "C[C@@H](O)[C@H](N)C(=O)N(CCCOC(=O)Cn1cnc2cc(Br)c(Cl)cc2c1=O)Cc1cccc(-c2ccc3c(c2)CNC3=O)c1"
assayed_target = "Threonine--tRNA ligase (Salmonella enterica) (UniProt A0A3F3IEK2)"
observed_value = 0

[[record]]
mol_smiles = "C[C@@H](O)[C@H](N)C(=O)N[C@H](CNC(=O)CCn1cnc2cc(Br)c(Cl)cc2c1=O)c1cccc(-c2ccc3c(c2)CNC3=O)c1"
assayed_target = "Threonine--tRNA ligase (Salmonella enterica) (UniProt A0A3F3IEK2)"
observed_value = 17.9

[[record]]
mol_smiles = "C[C@@H](O)[C@H](N)C(=O)N(CCC(=O)NCCn1cnc2cc(Br)c(Cl)cc2c1=O)Cc1cccc(-c2ccc3c(c2)CNC3=O)c1"
assayed_target = "Threonine--tRNA ligase (Salmonella enterica) (UniProt A0A3F3IEK2)"
observed_value = 25.4

[[record]]
mol_smiles = "C[C@@H](O)[C@H](N)C(=O)N[C@@H](CNC(=O)CCn1cnc2cc(Cl)c(Cl)cc2c1=O)c1cccc(-c2ccccc2)c1"
assayed_target = "Threonine--tRNA ligase (Salmonella enterica) (UniProt A0A3F3IEK2)"
observed_value = 23

[[record]]
mol_smiles = "C[C@@H](O)[C@H](N)C(=O)N(CCCCCCn1cnc2cc(Br)c(Cl)cc2c1=O)Cc1cccc(-c2ccc3c(c2)CNC3=O)c1"
assayed_target = "Threonine--tRNA ligase (Salmonella enterica) (UniProt A0A3F3IEK2)"
observed_value = 23.5

[[record]]
mol_smiles = "C[C@@H](O)[C@H](N)C(=O)N(CCCC(=O)NCCn1cnc2cc(Br)c(Cl)cc2c1=O)Cc1cccc(-c2ccc3c(c2)CNC3=O)c1"
assayed_target = "Threonine--tRNA ligase (Salmonella enterica) (UniProt A0A3F3IEK2)"
observed_value = 27.8

